- system_name: N-terminal Xaa-Pro-Lys N-methyltransferase 1 (Homo sapiens)
- experimental_protocol: Confirmatory qHTS for Inhibitors of N-terminal methyltransferase 1 (NTMT1): MTaseGlo Assay (AID 1645874); note: potency is the fitted concentration of half-maximal effect; nearly all actives have a fitted effect of over 65% in size
- condition_description: NTMT1 enzyme, MTase-Glo SAH luminescence; series mostly up to 204 µM
- Description: Assay Submitter (PI): Rong Huang Ph.D. Purdue University, West Lafayette, IN 47907 The N-terminal methytransferase 1 is the first methyltransferase that methylates protein alpha-N-amines and plays an important role in regulating cell mitosis, chromatin interactions and DNA repair. […] To address this unmet need, a panel of assay is created and established to enable quantitative high-throughput screening (qHTS) for novel, potent, and selective small molecule NTMT1 inhibitors. […]
Results filed as inconclusive are left out. Active and inactive are the calls of the source. Calls come from the whole dose curve; as a rule, active = well fitted inhibition curve with a large enough effect; inconclusive = small, poorly fitted or top-dose-only effect; inactive = no such curve, though single readings can be large or run the other way.
measured_endpoint: Potency

// solved cases for Potency follow
• CC[C@]1(O)CC[C@H]2[C@@H]3CCC4=CCCC[C@@H]4[C@H]3CC[C@@]21C = 14.1 µM (active)
• Oc1ccc([C@H]2CNCc3c2ccc(O)c3O)cc1O = 18.3 µM (active)

Next, consider the following compound.
The value of Potency measured for the compound `Cc1ccc([N+](=O)[O-])[c]2c1[O][Hg]2` turned out to be 0.728 µM (active)
